# tgt: hCB2R(D80N) (Homo sapiens, UniProt P34972, D80N)
# Sequence (P34972 whole entry D80N): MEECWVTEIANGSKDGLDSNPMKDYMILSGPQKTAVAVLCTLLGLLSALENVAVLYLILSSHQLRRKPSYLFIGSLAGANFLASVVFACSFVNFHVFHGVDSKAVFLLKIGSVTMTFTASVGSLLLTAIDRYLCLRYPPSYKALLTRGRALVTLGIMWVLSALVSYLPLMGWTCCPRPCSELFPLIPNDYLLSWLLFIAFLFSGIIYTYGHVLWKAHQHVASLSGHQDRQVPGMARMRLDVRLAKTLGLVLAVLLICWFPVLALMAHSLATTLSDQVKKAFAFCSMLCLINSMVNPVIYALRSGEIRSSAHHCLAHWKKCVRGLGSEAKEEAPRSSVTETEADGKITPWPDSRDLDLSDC
# protocol: Homologous displacement autoradiography, brain cryosections of rats with hCB2R(D80N) overexpression
# Format: binding
measureName: Kd (nM)
Numbers only; they are read as nM.

# query: Kd of entry [2H]C([2H])([18F])C([2H])([2H])C([2H])([2H])C([2H])([2H])n1c(C)c(C)s/c1=N\C(=O)C1C(C)(C)C1(C)C [[^18F]JHU94620-d8]
41

----------
# protocol: in vivo
# measurementContext: male, Wistar, rat, iv, metabolic half-life (t1/2) in brain
measureName: half-life
Please answer in the form of a number followed by its unit of measurement.

# query: half-life of entry [2H]C([2H])([18F])C([2H])([2H])C([2H])([2H])C([2H])([2H])n1c(C)c(C)s/c1=N\C(=O)C1C(C)(C)C1(C)C [[^18F]JHU94620-d8]
53.8 min

----------
# tgt: UniProt P47936
# Sequence (P47936 whole entry): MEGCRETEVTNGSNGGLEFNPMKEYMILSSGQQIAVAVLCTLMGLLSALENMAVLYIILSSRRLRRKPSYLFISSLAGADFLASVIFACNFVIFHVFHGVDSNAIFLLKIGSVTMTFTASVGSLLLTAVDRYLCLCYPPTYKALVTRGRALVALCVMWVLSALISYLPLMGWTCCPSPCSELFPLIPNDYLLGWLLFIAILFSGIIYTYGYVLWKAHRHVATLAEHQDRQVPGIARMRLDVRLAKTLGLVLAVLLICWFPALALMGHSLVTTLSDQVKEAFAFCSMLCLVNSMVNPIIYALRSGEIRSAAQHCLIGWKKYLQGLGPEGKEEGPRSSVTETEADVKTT
measureName: Kd (nM)
Numbers only; they are read as nM.

# query: Kd of entry [2H]C([2H])([18F])C([2H])([2H])C([2H])([2H])C([2H])([2H])n1c(C)c(C)s/c1=N\C(=O)C1C(C)(C)C1(C)C [[^18F]JHU94620-d8]
1.98

----------
# protocol: in vivo
# measurementContext: male, Wistar, rat, iv, metabolic half-life (t1/2) in plasma
measureName: half-life (min)
Numbers only; they are read as min.

# query: half-life of entry [2H]C([2H])([18F])C([2H])([2H])C([2H])([2H])C([2H])([2H])n1c(C)c(C)s/c1=N\C(=O)C1C(C)(C)C1(C)C [[^18F]JHU94620-d8]
7.6

----------
# tgt: CB2R (Rattus norvegicus, UniProt Q9QZN9)
# Construct: from tissue; host or cells: rat spleen: cryosections in vitro, and spleen of living Wistar rats in PET
# Sequence (Q9QZN9 whole entry): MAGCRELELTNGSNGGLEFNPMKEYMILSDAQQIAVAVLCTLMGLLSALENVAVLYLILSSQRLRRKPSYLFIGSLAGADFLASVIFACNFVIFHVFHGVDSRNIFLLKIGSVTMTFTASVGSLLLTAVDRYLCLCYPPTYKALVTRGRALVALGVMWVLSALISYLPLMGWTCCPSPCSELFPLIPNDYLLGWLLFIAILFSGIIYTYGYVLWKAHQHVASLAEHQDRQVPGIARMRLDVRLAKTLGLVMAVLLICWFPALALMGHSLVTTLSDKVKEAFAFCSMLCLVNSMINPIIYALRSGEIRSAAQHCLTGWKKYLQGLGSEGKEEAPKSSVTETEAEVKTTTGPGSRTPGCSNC
# protocol: Quantitative autoradiography, rat spleen cryosections
# Format: binding
# measurementContext: KD, rat spleen cryosection, homologous displacement autoradiography, n = 3
measureName: Kd
Please answer in the form of a number followed by its unit of measurement.

# query: Kd of entry [2H]C([2H])([18F])C([2H])([2H])C([2H])([2H])C([2H])([2H])n1c(C)c(C)s/c1=N\C(=O)C1C(C)(C)C1(C)C [[^18F]JHU94620-d8]
0.74 nM
